GI50 listing for selected molecules.
# Tested on: SNB-19 CNS
# method description: NCI tumour cell line growth inhibition, 48 h
endpoint label: GI50

- molecule: "COC(=O)C1=C(OC(=O)c2ccc(Cl)cc2)C(C(=O)OC)[C@@]2(O)[C@@H](C(=O)OC)C(c3ccccc3C(F)(F)F)C[C@@H]1[C@@H]2C(=O)OC (stereo not given in full)"
  endpoint label: "GI50"
  test value: "6.44 µM"
- molecule: "COc1cc2cc(Oc3ccc(NC(=O)c4cccc(C(F)(F)F)c4)cc3)c(C)nc2cc1OC"
  endpoint label: "GI50"
  test value: "8.09 µM"
- molecule: "O=C(O)c1cc[c]([Hg][S]c2ncnc3nc[nH]c23)cc1"
  endpoint label: "GI50"
  test value: "> 76.7 µM"
- molecule: "Fc1cccc(COc2ccc(Nc3ncnc4sc(-c5ccco5)cc34)cc2Cl)c1"
  endpoint label: "GI50"
  test value: "> 25 µM"
- molecule: "C#C[C@]1(O)CC[C@H]2[C@@H]3CC=C4c5nc(Nc6ccccn6)sc5CC[C@]4(C)[C@H]3CC[C@@]21C"
  endpoint label: "GI50"
  test value: "1.37 µM"

###

# System: HS 578T breast
# method description: NCI tumour cell line growth inhibition, 48 h; in the data active = GI50 below about 0.43 µM; inactive = the rest
Outcome codes: TRUE for active, FALSE for inactive

- molecule: "S=C(N/N=C/c1cc(Cl)cc(Cl)c1)NC12CC3CC(CC(C3)C1)C2"
  assigned label: "FALSE"
- molecule: "O=C1/C(=C/c2ccc(Cl)cc2)CCCc2ccc(F)cc21"
  assigned label: "FALSE"
- molecule: "COc1ccc(-c2cc(-c3ccc(Cl)cc3)c(C#N)c(=O)n2CCCCC(=O)Nc2ccccc2N)cc1"
  assigned label: "FALSE"
- molecule: "CNC(=O)Nc1ccc(-c2nc(N3CCOCC3)nc3c2cnn3C2CCOCC2)cc1"
  assigned label: "TRUE"
- molecule: "COc1cc(-c2csc(NC(=O)c3cc(C(F)(F)F)cc(C(F)(F)F)c3)n2)cc(OC)c1OC"
  assigned label: "FALSE"
- molecule: "CCOC(=O)c1c(NC(=O)c2ccc(C(C)C)cc2)sc2c(CN(C)C)c(O)ccc12"
  assigned label: "FALSE"
- molecule: "COc1ccc(C(=O)N2c3ccccc3Sc3ccccc32)c(F)c1"
  assigned label: "TRUE"
- molecule: "CC(=O)c1cccc(N(/C=C/C(=O)C(F)(F)F)CC(=O)c2ccc(Cl)cc2)c1"
  assigned label: "FALSE"
- molecule: "N=C(N)c1ccc(-c2ccc(-c3ccc(Cl)cc3Cl)o2)cc1"
  assigned label: "FALSE"
- molecule: "COc1cc(/C=C2\\CN(C)CC3=C2Nc2nc(SC)[nH]c(=O)c2C3c2cc(OC)c(OC)c(OC)c2)cc(OC)c1OC (stereo not given)"
  assigned label: "FALSE"

###

TGI: recorded values
# System: MOLT-4 leukemia
# method description: NCI tumour cell line growth inhibition, 48 h
Peptide text beside a SMILES is read from it. * marks the point of attachment. X26 = Clc1c(Cl)c(Cl)c(O*)c(Cl)c1Cl; Boc = CC(C)(C)OC(=O)*; OBn = c1ccc(CO*)cc1; Bn = c1ccc(C*)cc1
endpoint label: TGI

- compound: "CCC1(Br)C(=O)NC(=O)N(C2CC(O)C(CO)O2)C1N=[N+]=[N-] (stereo not given)"
  test value: "> 100 µM"
- compound: "CON(C)C(=O)C(C)NC(=O)OCc1ccccc1 (stereo not given)"
  test value: "> 100 µM"
- compound: "CCCCCCCCCCCCOCCOCCOCCOCCOCCOCC(=O)NC(Cc1ccccc1)C(=O)Oc1ccc([N+](=O)[O-])cc1 (stereo not given)"
  test value: "74.8 µM"
- compound: "CC(C)N(C(C)C)[PH+]1O[PH+](N(C(C)C)C(C)C)O[PH+](N(C(C)C)C(C)C)O[PH+](N(C(C)C)C(C)C)O[PH+](N(C(C)C)C(C)C)O1.[C-]#[O+].[C-]#[O+].[C-]#[O+].[C-]#[O+].[C-]#[O+].[C-]#[O+].[C-]#[O+].[Cr].[Cr] (stereo not given)"
  test value: "> 100 µM"
- compound: "Cn1cc(C2=C(c3cn(C)c4ccc(N)cc34)C(=O)NC2=O)c2ccccc21"
  test value: "> 25 µM"
- compound: "CC(C)CC(NC(=O)C(CCC(=O)OCc1ccccc1)NC(=O)OC(C)(C)C)C(=O)NC(COCc1ccccc1)C(=O)NC(Cc1ccccc1)C(=O)Oc1c(Cl)c(Cl)c(Cl)c(Cl)c1Cl (stereo not given) (Boc-E(OBn)LS(Bn)F-X26; configuration not given here)"
  test value: "54.1 µM"
- compound: "CC(=O)OCC(=O)O[C@@H]1[C@H]2[C@@H](OC(=O)c3ccccc3)[C@@H](C)C[C@]2(O)[C@H](OC(C)=O)[C@@]2(C)C[C@]1(OC(C)=O)C[C@H]1C(=O)C(C)(C)[C@@H](OC(C)=O)[C@@H]12"
  test value: "> 25 µM"
- compound: "COc1ccc(C2=C(Cl)C(=O)O/C2=C\\c2ccc(OC)c(Br)c2)cc1Cl"
  test value: "> 100 µM"
- compound: "COC(=O)C1=C(C)NC(C)=C(C(=O)OC)C1c1cccc(N=O)c1"
  test value: "> 100 µM"
- compound: "Cc1nc2c(n1CC(C)(C)C)C(=O)c1ccccc1C2=O"
  test value: "> 100 µM"
- compound: "S=c1[nH]nc(Cn2c3ccc(Br)cc3c3nc4ccccc4nc32)n1C1CCCCC1"
  test value: "28.6 µM"
- compound: "O=c1oc2ccccc2c(O)c1C=NC(=S)c1ccncc1"
  test value: "> 100 µM"
- compound: "COc1ccc(-n2nnc3c(sc4ccccc43)c2=O)cc1"
  test value: "> 100 µM"
- compound: "O=C1NC(=S)NC(=O)C1C(c1ccc(Cl)cc1)C1C(=O)NC(=S)NC1=O"
  test value: "> 100 µM"
- compound: "COc1cc(/C=C2\\CN(C)CC3=C2Nc2nc(SC)[nH]c(=O)c2C3c2cc(OC)c(OC)c(OC)c2)cc(OC)c1OC (stereo not given)"
  test value: "88 µM"
- compound: "O=C(OC12CC3CC(CC(C3)C1)C2)c1ccc(NCc2cc(O)ccc2O)cc1"
  test value: "0.451 µM"
- compound: "N#CC(C#N)SCc1ccccc1"
  test value: "> 100 µM"
- compound: "NC(N)=NS(=O)(=O)c1ccc(NC(=O)c2cccc3c(NNc4ccc(S(N)(=O)=O)cc4)c4ccccc4nc23)cc1"
  test value: "74.1 µM"
- compound: "Oc1c(OCc2nnc(CCCCCCCCc3nnc(COc4ccc5ccccc5c4O)o3)o2)ccc2ccccc12"
  test value: "> 100 µM"
- compound: "O=C1CC(c2ccccc2Cl)C2(C(=O)NC(=O)NC2=O)C(c2ccccc2Cl)C1 (stereo not given)"
  test value: "> 100 µM"
- compound: "COC(=O)C1=C(C(=O)OC)SC(=C2SC3=C(SC(=C4SCCS4)S3)S2)S1"
  test value: "> 100 µM"
- compound: "O=c1nc(-c2ccccc2)c2c3c(cccn13)CCC2"
  test value: "> 100 µM"
- compound: "CC(C)c1ccc2nc3ccc(C(=O)NCCN(C)C)cn3c(=O)c2c1"
  test value: "49.8 µM"
- compound: "CCN(CCCCCCCCCCN1CC(=O)N(CCCCCCCCCCN(CC)Cc2ccccc2OC)CC1=O)Cc1ccccc1OC"
  test value: "8.04 µM"
- compound: "C[N+]1(CCN=C=NC2CCCCC2)CCOCC1"
  test value: "> 100 µM"
- compound: "C=C(C)C1CC2C(C)=C(OC(C)=O)C1n1c(=O)c3cc4ccccc4cc3c(=O)n12 (stereo not given)"
  test value: "> 100 µM"
- compound: "CCOc1ccc(NCC2CC/C(=C\\C=C\\c3ccccc3)C2=O)cc1 (stereo not given)"
  test value: "> 42.9 µM"
- compound: "O=P1(C(O)/C=C/c2ccccc2)N(Cc2ccccc2)[C@@H]2CCCC[C@H]2N1Cc1ccccc1 (stereo not given in full)"
  test value: "9.77 µM"
- compound: "COc1ccc(Cl)cc1Nc1nc(C(F)(F)F)ccc1C(=O)NN"
  test value: "> 24.3 µM"
- compound: "Nc1c(S(N)(=O)=O)cc(S(N)(=O)=O)cc1S(N)(=O)=O"
  test value: "> 100 µM"
- compound: "NCCN(CCN(C(=O)Nc1ccccc1)c1ccccc1)C(=O)Nc1ccccc1"
  test value: "> 100 µM"
- compound: "N/C(=N\\OC(=O)c1ccccc1)C(C(=O)NOC(=O)c1ccccc1)C1CCCCC1 (stereo not given)"
  test value: "49.8 µM"
- compound: "CNC(=S)NNc1ncnc2c1c(-c1ccc(Cl)cc1)cn2-c1ccc(C)cc1"
  test value: "> 100 µM"
- compound: "CCN(CC)c1ccc(NC(=S)NN(C)C)cc1"
  test value: "> 10 µM"
- compound: "O=[N+]([O-])/C(Cl)=C(/C(Cl)=C(Cl)Cl)N1CCCCC1"
  test value: "11.7 µM"
